Hello, the source for this data is PubChem BioAssay (NCI), in case you need it.

- Tested on: MDA-MB-231 breast
- procedureText: NCI tumour cell line growth inhibition, 48 h
readout: GI50

Please review the entries below; each comes with its answer.
C=C(c1ccc(C(=O)NCCCn2ccnc2)cc1)c1cc2c(cc1C)C(C)(C)CCC2(C)C :: 1440 nM
OCCN1CCCN(CCCN2c3ccccc3Sc3ccc(C(F)(F)F)cc32)CC1 :: 2310 nM
Cc1nc2sc(C(=O)Nc3cccc(Cl)c3)c(N)c2cc1C(O)c1ccccc1 (stereo unspecified) :: 2520 nM
COc1ccc(-c2nc3sccn3c2/C=C/C(=O)c2cc(OC)c(OC)c(OC)c2)cc1 :: 3280 nM
Nc1nc2c(ncn2C2OC(CO)C(O)C2O)c(=O)[nH]1 (stereo unspecified) :: > 100000 nM

Next item in the queue.
Query (compound): O=C(Cc1csc2nc(-c3ccc(Br)cc3)cn12)N/N=C/c1ccccc1O ; field requested: GI50
3270 nM
